- System tested: PDE9 (Homo sapiens, UniProt O76083)
- Sequence (O76083 whole entry): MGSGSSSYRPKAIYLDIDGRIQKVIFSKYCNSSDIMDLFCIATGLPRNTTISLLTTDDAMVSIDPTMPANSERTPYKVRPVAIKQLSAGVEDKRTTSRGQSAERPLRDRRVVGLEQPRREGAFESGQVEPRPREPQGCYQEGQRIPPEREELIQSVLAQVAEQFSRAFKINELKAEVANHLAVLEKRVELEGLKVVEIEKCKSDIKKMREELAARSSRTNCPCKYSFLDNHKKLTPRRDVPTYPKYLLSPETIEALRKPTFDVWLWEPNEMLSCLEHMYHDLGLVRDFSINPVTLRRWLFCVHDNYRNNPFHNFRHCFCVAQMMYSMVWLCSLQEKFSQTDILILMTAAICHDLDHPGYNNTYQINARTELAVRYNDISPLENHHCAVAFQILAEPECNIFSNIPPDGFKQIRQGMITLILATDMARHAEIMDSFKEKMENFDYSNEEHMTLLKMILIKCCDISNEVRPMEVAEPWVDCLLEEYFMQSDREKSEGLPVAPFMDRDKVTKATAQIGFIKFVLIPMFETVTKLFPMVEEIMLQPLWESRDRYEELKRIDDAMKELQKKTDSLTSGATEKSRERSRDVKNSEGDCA
- Assay protocol: PDE9-inhibiting activity (SPA, 3H-cGMP degradation)
pIC50: −log10 of the molar value.
Measured metric: pIC50

- Chem smiles: "Cc1cc2c(cc1C(=O)N1CCc3cc(Cl)ccc31)[nH]c(=O)c1cnc([C@H]3CC[C@H](C(N)=O)CC3)n12"
  System tested: "PDE9 (Homo sapiens, UniProt O76083)"
  pIC50: 9.05

[A] Cc1cc2c(cc1C(=O)N1CCc3cc(Cl)c(F)cc31)[nH]c(=O)c1nnc(C3CCCC3)n12
[B] Cc1cc2c(cc1C(=O)N1CC(C)(C)c3cc(Cl)ccc31)[nH]c(=O)c1nnc(C3CCOCC3)n12.Cl
[C] COCc1cc2c(cc1C(=O)N1CCc3cc(F)c(F)cc31)[nH]c(=O)c1nnc(C3CCOCC3)n12.Cl
Request: List from greatest to least pIC50. # output: labels, in the requested order
Result: B, A, C

[1] COCc1cc2c(cc1C(=O)N1CCc3cc(Cl)ccc31)[nH]c(=O)c1cnc(C3CCOCC3)n12.Cl
[2] COCc1cc2c(cc1C(=O)N1CCc3cc(Cl)ccc31)[nH]c(=O)c1nnc(C3CCOCC3)n12
Request: Two entries are listed, 1 and 2 . Which one carries the higher pIC50? State the label of the item chosen.
Result: 1

====

Measured metric: melting point

- Molecule: "Cc1cc2c(cc1C(=O)N1Cc3cccc(Cl)c3C1)[nH]c(=O)c1cnc(C3CCOCC3)n12.Cl"
  melting point: "198 to 200 °C"

Please find the next molecule below.
Request: Given the molecule `COc1cc2c(cc1C(=O)N1CCc3cc(Cl)ccc31)[nH]c(=O)c1nnc(C3CCOCC3)n12.Cl` , what is its reported melting point?
Result: 284 °C (dec.)

====

This listing pairs compounds with measured melting point.

Request: Given the compound `Cc1cc2c(cc1C(=O)N1CCc3sccc3C1)[nH]c(=O)c1cnc(C3CCOCC3)n12.Cl` , what is its reported melting point?
Result: 283 to 285 °C

Request: Also check Cc1cc2c(cc1C(=O)N1CCc3cc(Cl)ccc31)[nH]c(=O)c1nnc(C(O)C3CC3)n12 (centres unmarked)
Result: 260 to 262 °C (dec.)

====

This listing pairs compounds with measured melting point.

- Compound: "Cc1cc2c(cc1C(=O)N1Cc3ccc(Cl)cc3C1)[nH]c(=O)c1cnc(C3CCCOC3)n12.Cl (stereo not drawn)"
  melting point: "200 to 203 °C"

Please find the next compound below.
Request: Given the compound Cc1cc2c(cc1C(=O)N1Cc3cccc(C)c3C1)[nH]c(=O)c1cnc(C3CCOC3)n12.Cl (stereo not drawn) , what is its reported melting point?
Result: 270 to 272 °C (dec.)

====

This listing pairs compounds with measured melting point.

- Compound: "Cc1cc2c(cc1C(=O)N1CCc3c(cc(-c4ccccc4)n3C)C1)[nH]c(=O)c1nnc(C3CCOCC3)n12"
  melting point: "223 to 225 °C"
- Compound: "CC(C)c1ncc2c(=O)[nH]c3cc(C(=O)N4CCOC(c5ccccc5)C4)ccc3n12.Cl (stereo not shown)"
  melting point: "268 to 271 °C"
- Compound: "Cc1c(C(=O)N2CCc3cccnc32)ccc2c1[nH]c(=O)c1cnc(C3CCOCC3)n12.Cl"
  melting point: "320 °C (dec.)"

Please find the next compound below.
Request: Given the compound `Cc1cc2c(cc1C(=O)N1CCc3cc(F)ccc31)[nH]c(=O)c1cnc(C3CCOCC3)n12.Cl` , what is its reported melting point?
Result: 297 to 298 °C
